Reported I (%) (inhibition) values for the following molecules.
- assayed-target: recombinant human protein kinase CK2 alpha subunit (Homo sapiens, UniProt P68400)
- Sequence (P68400 whole entry): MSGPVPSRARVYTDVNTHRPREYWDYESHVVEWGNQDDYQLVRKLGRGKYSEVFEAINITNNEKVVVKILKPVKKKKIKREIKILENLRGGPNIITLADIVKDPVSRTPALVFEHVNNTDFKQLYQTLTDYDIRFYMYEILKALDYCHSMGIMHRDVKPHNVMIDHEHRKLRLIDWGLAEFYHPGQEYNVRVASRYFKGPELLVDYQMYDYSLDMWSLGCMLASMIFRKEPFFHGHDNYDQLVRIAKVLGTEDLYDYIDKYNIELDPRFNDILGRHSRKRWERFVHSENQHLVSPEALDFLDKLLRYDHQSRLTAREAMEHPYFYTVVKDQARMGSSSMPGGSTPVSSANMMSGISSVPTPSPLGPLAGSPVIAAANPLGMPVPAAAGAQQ
- measurement-protocol: Luminescent (Kinase-Glo) CK2 screening assay
- Format: biochemical
- details: inhibitor 1 μM; ATP 10 µM, peptide substrate RRRDDDSDDD 200 µM; 30 °C, 40 min; triplicate; LI = luciferase inhibition (luminescence lower than control)
- Method: The study was conducted using recombinant human protein kinase CK2 alpha subunit, obtained using plasmid pZW6 (Addgene, USA, catalogue number 27086), ATP (Sigma-Aldrich, USA, catalogue number A2383) and peptide substrate RRRDDDSDDD (GenScript, USA, catalogue number RP10318). […] The luminescent assay measured sample luminescence following the addition of the Kinase-Glo luciferase mixture, with the signal reflecting the remaining ATP content. […]

{"smi": "COc1ccc2c(c1)OC(=Cc1ccccc1O)C2=O", "assayed-target": "recombinant human protein kinase CK2 alpha subunit (Homo sapiens, UniProt P68400)", "I (%) (inhibition)": "<25%"}
{"smi": "O=C1C(=Cc2ccc(O)c([N+](=O)[O-])c2)Oc2c1ccc1ccccc21", "assayed-target": "recombinant human protein kinase CK2 alpha subunit (Homo sapiens, UniProt P68400)", "I (%) (inhibition)": "80 ± 13%"}
{"smi": "COc1ccc2c(c1)OC(=Cc1cccc(O)c1)C2=O", "assayed-target": "recombinant human protein kinase CK2 alpha subunit (Homo sapiens, UniProt P68400)", "I (%) (inhibition)": "<25%"}
{"smi": "Cc1cc(/C=C2\\Oc3cc(C)c(Cl)c(C)c3C2=O)ccc1O", "assayed-target": "recombinant human protein kinase CK2 alpha subunit (Homo sapiens, UniProt P68400)", "I (%) (inhibition)": "<25%"}
{"smi": "O=C(O)c1ccc(C=C2Oc3cc(O)ccc3C2=O)cc1", "assayed-target": "recombinant human protein kinase CK2 alpha subunit (Homo sapiens, UniProt P68400)", "I (%) (inhibition)": "41 ± 9%"}
{"smi": "O=C1C(=Cc2ccc(O)c(F)c2)Oc2ccc(Cl)cc21", "assayed-target": "recombinant human protein kinase CK2 alpha subunit (Homo sapiens, UniProt P68400)", "I (%) (inhibition)": "<25%"}
{"smi": "O=C1C(=Cc2ccccc2O)Oc2ccc(O)cc21", "assayed-target": "recombinant human protein kinase CK2 alpha subunit (Homo sapiens, UniProt P68400)", "I (%) (inhibition)": "<25%"}
{"smi": "O=C1C(=Cc2ccc(O)c(F)c2)Oc2ccc3ccccc3c21", "assayed-target": "recombinant human protein kinase CK2 alpha subunit (Homo sapiens, UniProt P68400)", "I (%) (inhibition)": "95 ± 23%"}
{"smi": "COc1cc(C=C2Oc3cc(O)ccc3C2=O)cc(Cl)c1O", "assayed-target": "recombinant human protein kinase CK2 alpha subunit (Homo sapiens, UniProt P68400)", "I (%) (inhibition)": "48 ± 21%"}
{"smi": "O=C(O)c1ccc(C=C2Oc3c(ccc4ccccc34)C2=O)cc1", "assayed-target": "recombinant human protein kinase CK2 alpha subunit (Homo sapiens, UniProt P68400)", "I (%) (inhibition)": "<25%"}

* * *

Catalogue of molecules with associated IC50
- assayed-target: recombinant human protein kinase CK2 alpha subunit (Homo sapiens, UniProt P68400)
- measurement-protocol: Capillary electrophoresis (CE) CK2 assay
- details: ATP 100 µM, peptide substrate 100 µM; 30 °C, 40 min; triplicate; Hill fit

{"smi": "COc1cc(C=C2Oc3ccc4ccccc4c3C2=O)ccc1O", "IC50 (nM)": 130}
{"smi": "O=C1C(=Cc2ccc(O)c(Br)c2)Oc2ccc3ccccc3c21", "IC50 (nM)": 13}
{"smi": "O=C1C(=Cc2ccc(O)c([N+](=O)[O-])c2)Oc2c1ccc1ccccc21", "IC50 (nM)": 680}
{"smi": "O=C1C(=Cc2ccc(O)c(Cl)c2)Oc2ccc3ccccc3c21", "IC50 (nM)": 3}
{"smi": "O=C1C(=Cc2ccc(O)c(F)c2)Oc2ccc3ccccc3c21", "IC50 (nM)": 220}
{"smi": "COc1cc(C=C2Oc3ccc4ccccc4c3C2=O)cc([N+](=O)[O-])c1O", "IC50 (nM)": 130}

* * *

- assayed-target: recombinant human protein kinase CK2 alpha subunit (Homo sapiens, UniProt P68400)
- measurement-protocol: Luminescent (Kinase-Glo) CK2 screening assay
- Format: biochemical
- details: inhibitor 1 μM; ATP 10 µM, peptide substrate RRRDDDSDDD 200 µM; 30 °C, 40 min; triplicate; LI = luciferase inhibition (luminescence lower than control)
- Description: The study was conducted using recombinant human protein kinase CK2 alpha subunit, obtained using plasmid pZW6 (Addgene, USA, catalogue number 27086), ATP (Sigma-Aldrich, USA, catalogue number A2383) and peptide substrate RRRDDDSDDD (GenScript, USA, catalogue number RP10318). […] The luminescent assay measured sample luminescence following the addition of the Kinase-Glo luciferase mixture, with the signal reflecting the remaining ATP content. […]

{"smi": "O=C(O)c1ccc(C=C2Oc3ccc4ccccc4c3C2=O)cc1", "unit-symbol": "%", "limit-qualifier": "=", "I (%) (inhibition)": 69}
{"smi": "O=C1C(=Cc2ccc(O)c(Br)c2)Oc2c1ccc1ccccc21", "unit-symbol": "%", "limit-qualifier": "<", "I (%) (inhibition)": 25}
{"smi": "O=C1C(=Cc2ccc(O)c(Br)c2)Oc2ccc3ccccc3c21", "unit-symbol": "%", "limit-qualifier": "=", "I (%) (inhibition)": 86}
{"smi": "O=C1C(=Cc2ccc(O)c(F)c2)Oc2c(Cl)ccc(Cl)c21", "unit-symbol": "%", "limit-qualifier": "=", "I (%) (inhibition)": 61}
{"smi": "COc1ccc2c(c1)OC(=Cc1ccc(O)cc1)C2=O", "unit-symbol": "%", "limit-qualifier": "<", "I (%) (inhibition)": 25}
{"smi": "COc1cccc(C=C2Oc3ccccc3C2=O)c1O", "unit-symbol": "%", "limit-qualifier": "<", "I (%) (inhibition)": 25}

* * *

- assayed-target: recombinant human protein kinase CK2 alpha subunit (Homo sapiens, UniProt P68400)
- measurement-protocol: Luminescent (Kinase-Glo) CK2 screening assay
- Format: biochemical
- details: inhibitor 1 μM; ATP 10 µM, peptide substrate RRRDDDSDDD 200 µM; 30 °C, 40 min; triplicate; LI = luciferase inhibition (luminescence lower than control)
List of I (%) (inhibition) values.

{"smi": "O=C1C(=Cc2cccc(O)c2)Oc2ccc3ccccc3c21", "limit-qualifier": "<", "I (%) (inhibition)": 25}
{"smi": "COc1cc(C=C2Oc3c(ccc4ccccc34)C2=O)ccc1O", "limit-qualifier": "<", "I (%) (inhibition)": 25}
{"smi": "COc1cc(C=C2Oc3ccc4ccccc4c3C2=O)ccc1O", "limit-qualifier": "=", "I (%) (inhibition)": 85}
{"smi": "Cc1cc(C=C2Oc3c(Cl)ccc(Cl)c3C2=O)ccc1O", "limit-qualifier": "<", "I (%) (inhibition)": 25}
{"smi": "Cc1cc(C=C2Oc3ccc(Cl)cc3C2=O)ccc1O", "limit-qualifier": "<", "I (%) (inhibition)": 25}
{"smi": "O=C1C(=Cc2ccc(O)c(F)c2)Oc2c1ccc1ccccc21", "limit-qualifier": "<", "I (%) (inhibition)": 25}
{"smi": "CCOc1cc(/C=C2\\Oc3cc(O)ccc3C2=O)ccc1O", "limit-qualifier": "<", "I (%) (inhibition)": 25}
{"smi": "O=C1/C(=C/c2ccccc2O)Oc2cc(O)ccc21", "limit-qualifier": "<", "I (%) (inhibition)": 25}
{"smi": "O=C1C(=Cc2cc(Cl)c(O)c(Cl)c2)Oc2ccc3ccccc3c21", "limit-qualifier": "=", "I (%) (inhibition)": 78}
{"smi": "COc1cc(C=C2Oc3ccc4ccccc4c3C2=O)cc([N+](=O)[O-])c1O", "limit-qualifier": "=", "I (%) (inhibition)": 90}
{"smi": "O=C1C(=Cc2cc(Br)c(O)c(Br)c2)Oc2c1ccc1ccccc21", "limit-qualifier": "=", "I (%) (inhibition)": 39}
{"smi": "COc1ccc2c(c1)OC(=Cc1ccc(O)c(OC)c1)C2=O", "limit-qualifier": "=", "I (%) (inhibition)": 27}
{"smi": "Cc1cc2c(c(C)c1Cl)C(=O)C(=Cc1ccc(O)c(F)c1)O2", "limit-qualifier": "<", "I (%) (inhibition)": 25}
{"smi": "O=C1C(=Cc2ccc(O)cc2)Oc2c1ccc1ccccc21", "limit-qualifier": "<", "I (%) (inhibition)": 25}
{"smi": "O=C1C(=Cc2ccc(O)c(O)c2)Oc2ccc3ccccc3c21", "limit-qualifier": "<", "I (%) (inhibition)": 25}
{"smi": "Cc1cc(C=C2Oc3ccc(Br)cc3C2=O)ccc1O", "limit-qualifier": "<", "I (%) (inhibition)": 25}
{"smi": "COc1cc(C=C2Oc3ccc4ccccc4c3C2=O)cc(Cl)c1O", "limit-qualifier": "=", "I (%) (inhibition)": 46}
{"smi": "O=C(O)c1cc(C=C2Oc3c(ccc4ccccc34)C2=O)ccc1O", "limit-qualifier": "<", "I (%) (inhibition)": 25}
{"smi": "O=C1C(=Cc2ccc(O)c(Cl)c2)Oc2c1ccc1ccccc21", "limit-qualifier": "=", "I (%) (inhibition)": 68}
{"smi": "O=C1C(=Cc2ccc(O)c(Cl)c2)Oc2ccc3ccccc3c21", "limit-qualifier": "=", "I (%) (inhibition)": 88}
